Sourced from paper PMC9579956

# system-tested: Mycobacterium thermoresistible (Mtr) LpqY (Mycolicibacterium thermoresistibile, UniProt G7CES0)
# Sequence (G7CES0 29-471): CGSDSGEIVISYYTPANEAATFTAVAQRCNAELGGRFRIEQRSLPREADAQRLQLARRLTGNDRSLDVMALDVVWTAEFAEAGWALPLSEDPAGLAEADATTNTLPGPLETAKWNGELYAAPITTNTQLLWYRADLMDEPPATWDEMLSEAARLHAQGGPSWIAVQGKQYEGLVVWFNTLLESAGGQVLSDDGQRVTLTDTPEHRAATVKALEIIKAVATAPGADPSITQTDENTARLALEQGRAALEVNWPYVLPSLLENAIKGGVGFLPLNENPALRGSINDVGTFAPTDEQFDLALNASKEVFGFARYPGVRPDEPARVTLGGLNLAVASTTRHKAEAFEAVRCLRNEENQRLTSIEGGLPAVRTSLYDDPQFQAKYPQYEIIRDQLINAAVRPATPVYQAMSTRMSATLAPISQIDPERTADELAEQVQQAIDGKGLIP
# Type: binding
# condition-set: single dose MST screen against LpqY
Rule: Pathogen Box screen signal/noise ratio below 0.5 gives condition met. Equal to or above 0.5 gives condition not met.

{"compound": "c1ccc(Oc2ccc(-c3cncc(-c4ccc5[nH]ccc5c4)n3)cc2)cc1 [MMV688178]", "qualitative-label": "condition not met"}
{"compound": "Cc1cnc(N2CCN[C@@H](Cc3ccccc3)C2)nc1Oc1ccc(-n2ccnc2)cc1 [MMV687765]", "qualitative-label": "condition not met"}
{"compound": "COc1cccc(CC(=O)N2CCC(n3c(C)nc4ccc(F)cc43)CC2)c1 [MMV020081]", "qualitative-label": "condition met"}
{"compound": "COc1cc(C2=NCCN2)ccc1-n1cc(-c2cccc(C3=NCCN3)c2)nn1 [MMV688474]", "qualitative-label": "condition met"}
{"compound": "COC(=O)c1cccc2oc(-c3cccc(OC)c3NC(=O)c3cc(-c4ccccc4)on3)nc12 [MMV676186]", "qualitative-label": "condition met"}
{"compound": "CCCCS(=O)(=O)Nc1ccc2cnn(C)c2c1 [MMV687145]", "qualitative-label": "condition not met"}
{"compound": "Cc1ccc(-c2cc(C(=O)Nc3cccnc3)c3cc(Br)ccc3n2)cc1 [MMV016838]", "qualitative-label": "condition not met"}
{"compound": "COc1cccc(OC)c1C(=O)Nc1ccc(Cl)c(-c2nc3ccccc3s2)c1 [MMV676472]", "qualitative-label": "condition met"}
